System: K562 CRISPRi cells
Assay: Constant region variant library pooled growth screen, K562
Format: cell-based, human
Details: sgRNA constant region variants; activity relative to the original, un-modified constant region cr995
// values below are reported Mean relative activity
Give a plain numeric answer without units written out.

cr456 (nucleic acid, listed as DNA, chemistry not fully specified) guide: GTTTAAGAGCTAAGCTGGAAACAGCATAGCAAATTTAAATAAGGCAAGTCCGTTATCAACTTGAAAAAGTGGCACCGAGTCGGTGCT ... 0.5821
cr271 (nucleic acid, listed as DNA, chemistry not fully specified) guide: GTTTAAGAGCTAAGCTGGAAACAGCATAGCAAGTTTAAATAAGGCTAGTCCGTTATCAACTTGAAAAAGTGGTCCCGAGTCGGGACT ... 1.03
cr101 (nucleic acid, listed as DNA, chemistry not fully specified) guide: GTTTAAGAGCTAAGCTGGAAACAGCATAGCAAGTTTAAATAAGGCTAGTCCGTTATCAACTTGAAAAAGTGGCGCCGAGTCGGTGCT ... 1.048

Consider now this further molecule.
Sample cr213 (nucleic acid, listed as DNA, chemistry not fully specified) guide: GTTTAAGAGCTAAGCTGGAAACAGCATAACAAGTTTAAATAGGGCTAGTCCGTTATCAACTTGAGAAAGTGGCACCGAGTCGGTGCT ; Mean relative activity observed: 0.6325
